# Tested on: slender amaranth (Am)
# assay summary: Test Example 4: crop plant selectivity by upland field soil treatment (cotton), herbicidal effects
# Format: in vivo
# Parameters: scale not given here
# conditions: dose 6.3 g ai/10 a, evaluated 21st day after application
value kind: Herbicidal effects Am

INSERT INTO results (compound, value_kind, numeric_readout) VALUES
  ('Cn1c(C(F)(F)F)ccc(-c2cc(OCC#N)c(Cl)cc2F)c1=O [1-25]', 'Herbicidal effects Am', 5),
  ('Cc1cc2c(-c3cn(C)c(C(F)(F)F)cc3=O)c(F)cc(Cl)c2o1 [Compound No. 9-1]', 'Herbicidal effects Am', 5),
  ('Cn1c(C(F)(F)F)ccc(-c2cc(OCC(F)F)c(Cl)cc2F)c1=O [1-173]', 'Herbicidal effects Am', 5),
  ('C#CCOc1cc(-c2ccc(C(F)(F)F)n(N)c2=O)c(F)cc1Cl [1-178]', 'Herbicidal effects Am', 5),
  ('C#CCOc1cc(Cl)cc(F)c1-c1ccc(C(F)(F)F)n(C)c1=O [1′-4]', 'Herbicidal effects Am', 5);

* * *

# Tested on: cotton (Go)
# assay summary: Test Example 4: crop plant selectivity by upland field soil treatment (cotton), phytotoxicity
# Format: in vivo
# Parameters: scale not given here
# conditions: dose 6.3 g ai/10 a, evaluated 21st day after application
value kind: Phytotoxicity Go

INSERT INTO results (molecule, value_kind, numeric_readout) VALUES
  ('CCCON=Cc1cc(-c2ccc(C(F)(F)F)n(C)c2=O)c(F)cc1Cl [Compound 1-188]', 'Phytotoxicity Go', 0),
  ('CCC(C)Oc1cc(-c2ccc(C(F)(F)F)n(C)c2=O)c(F)cc1Cl (stereo not drawn) [1-167]', 'Phytotoxicity Go', 1),
  ('Cn1c(C(F)(F)F)ccc(-c2cc(Oc3ncccn3)c(Cl)cc2F)c1=O [Compound No. 1-27]', 'Phytotoxicity Go', 1),
  ('CSCOc1cc(-c2ccc(C(F)(F)F)n(C)c2=O)c(F)cc1Cl [Compound 1-208]', 'Phytotoxicity Go', 1),
  ('C=CC(O)c1cc(-c2ccc(C(F)(F)F)n(C)c2=O)c(F)cc1Cl (stereo not drawn) [Compound 1-197]', 'Phytotoxicity Go', 1),
  ('Cn1c(C(F)(F)F)ccc(-c2cc(OCC3CC3)c(Cl)cc2F)c1=O [1-160]', 'Phytotoxicity Go', 1),
  ('Cc1cc(-c2ccc(C(F)(F)F)n(C)c2=O)c(F)cc1Cl [1-90]', 'Phytotoxicity Go', 1),
  ('CCCOc1cc(-c2ccc(C(F)(F)F)n(C)c2=O)c(F)cc1Cl [1-154]', 'Phytotoxicity Go', 0),
  ('Cc1cc2c(-c3cn(C)c(C(F)(F)F)cc3=O)c(F)cc(Cl)c2o1 [Compound No. 9-1]', 'Phytotoxicity Go', 0);

* * *

Reported Phytotoxicity Tr values for a set of compounds
# Tested on: wheat (Tr)
# assay summary: Test Example 5: crop plant selectivity by upland field soil treatment (wheat), phytotoxicity
# Format: in vivo
# Parameters: scale not given here
# conditions: dose 1.6 g ai/10a, 21st day after application
value kind: Phytotoxicity Tr

INSERT INTO assay_data (compound, numeric_readout) VALUES
  ('Cn1cc(-c2cc(Oc3ccccc3)c(Cl)cc2F)c(=O)cc1C(F)(F)F', 0),
  ('Cn1c(C(F)(F)F)ccc(-c2cc3c(cc2F)OCC(=O)N3)c1=O', 0),
  ('Cn1c(C(F)(F)F)ccc(-c2cc(Oc3ncccn3)c(Cl)cc2F)c1=O', 1),
  ('Cc1cc2c(-c3cn(C)c(C(F)(F)F)cc3=O)c(F)cc(Cl)c2o1', 0),
  ('COc1cc(-c2ccc(C(F)(F)F)n(C)c2=O)c(F)cc1Cl', 2),
  ('C=CCOc1cc(-c2ccc(C(F)(F)F)n(C)c2=O)c(F)cc1Cl', 1),
  ('Cn1c(C(F)(F)F)ccc(-c2cc(Cl)c(Cl)cc2F)c1=O', 1),
  ('C#CC(C)Oc1cc(-c2ccc(C(F)(F)F)n(C)c2=O)c(F)cc1Cl (stereo not drawn)', 1),
  ('C#CC(O)c1cc(-c2ccc(C(F)(F)F)n(C)c2=O)c(F)cc1Cl (stereo not drawn)', 1);

* * *

Overview of recorded Herbicidal effects Di for various molecules
# System: Digitaria ciliaris (Di)
# assay summary: Test Example 2: herbicidal effects by upland field soil treatment;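 further: grade of growth control; 5 = at least 90%; 4 = 70 to 90%; 3 = 50 to 70%; 2 = 30 to 50%; 1 = 10 to 30%; 0 = under 10%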
# Type: in vivo
# conditions: 100 g of the active ingredient per 10 ares, evaluated on the 21st day after application
# From the text: (Test on Herbicidal Effects by Upland Field Soil Treatment)
value kind: Herbicidal effects Di

INSERT INTO measurements (compound_structure, numeric_readout) VALUES
  ('COCN1C(=O)COc2cc(F)c(-c3ccc(C(F)(F)F)n(C)c3=O)cc21', 5),
  ('CSCOc1cc(-c2ccc(C(F)(F)F)n(C)c2=O)c(F)cc1Cl', 5),
  ('C=CCn1c(=O)sc2cc(F)c(-c3ccc(C(F)(F)F)n(C)c3=O)cc21', 5),
  ('CC#CCOc1cc(-c2ccc(C(F)(F)F)n(C)c2=O)c(F)cc1Cl', 5),
  ('Cn1c(C(F)(F)F)ccc(-c2cc(COC3CCCC3)c(Cl)cc2F)c1=O', 5);

* * *

Reported Herbicidal effects Ci values are given for each entry in this list.
# Test system: rice flatsedge (Ci)
# assay summary: Test Example 2: herbicidal effects by upland field soil treatment;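 further: grade of growth control; 5 = at least 90%; 4 = 70 to 90%; 3 = 50 to 70%; 2 = 30 to 50%; 1 = 10 to 30%; 0 = under 10%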
# Type: in vivo
# conditions: 100 g of the active ingredient per 10 ares, 21st day after the application, index 0-5 of Table 47
value kind: Herbicidal effects Ci

INSERT INTO assay_data (compound, numeric_readout) VALUES
  ('Cn1c(C(F)(F)F)ccc(-c2cc(C3OCCO3)c(Cl)cc2F)c1=O', 5),
  ('Cn1c(C(F)(F)F)ccc(-c2cc(OC3CCCC3)c(Cl)cc2F)c1=O', 5),
  ('Cn1c(C(F)(F)F)ccc(-c2cc(Br)c(Cl)cc2F)c1=O', 5),
  ('CCS(=O)(=O)Nc1cc(-c2ccc(C(F)(F)F)n(C)c2=O)c(F)cc1Cl', 5),
  ('Cn1c(C(F)(F)F)ccc(-c2ccc(Cl)cc2F)c1=O', 5),
  ('CCCCOC(=O)COc1cc(-c2ccc(C(F)(F)F)n(C)c2=O)c(F)cc1Cl', 5),
  ('Cc1cc(-c2ccc(Cl)cc2Cl)c(=O)n(C)c1C(F)(F)F', 5),
  ('Cn1c(C(F)(F)F)ccc(-c2cc(Oc3ncccn3)c(Cl)cc2F)c1=O', 5),
  ('Nn1c(C(F)(F)F)ccc(-c2ccc(Cl)cc2Cl)c1=O', 5),
  ('Cn1c(C(F)(F)F)ccc(-c2cc(OCC(=O)O)c(Cl)cc2F)c1=O', 5),
  ('Cn1c(C(F)(F)F)ccc(-c2cc([S+](C)[O-])c(Cl)cc2F)c1=O (centres unmarked)', 5),
  ('Cn1c(C(F)(F)F)ccc(-c2cc(S(C)(=O)=O)c(Cl)cc2F)c1=O', 5),
  ('Cn1c(C(F)(F)F)ccc(-c2cc(CO)c(Cl)cc2F)c1=O', 5),
  ('C#CCNc1cc(-c2ccc(C(F)(F)F)n(C)c2=O)c(F)cc1Cl', 5),
  ('CNS(=O)(=O)c1cc(-c2ccc(C(F)(F)F)n(C)c2=O)c(F)cc1Cl', 5),
  ('CON=Cc1cc(-c2ccc(C(F)(F)F)n(C)c2=O)c(F)cc1Cl', 5),
  ('CC(C)Sc1cc(-c2ccc(C(F)(F)F)n(C)c2=O)c(Cl)cc1Cl', 5),
  ('CCC(C)Oc1cc(-c2ccc(C(F)(F)F)n(C)c2=O)c(F)cc1Cl (centres unmarked)', 5),
  ('C#CC(C)Oc1cc(-c2cc(C)c(C(F)(F)F)n(C)c2=O)c(F)cc1Cl (centres unmarked)', 5),
  ('CCS(=O)(=O)N(C)c1cc(-c2ccc(C(F)(F)F)n(C)c2=O)c(F)cc1Cl', 5),
  ('Cn1c(C(F)(F)F)ccc(-c2cc(NS(C)(=O)=O)c(Cl)cc2F)c1=O', 5),
  ('CCCCOc1cc(-c2ccc(C(F)(F)F)n(C)c2=O)c(F)cc1Cl', 5),
  ('C=CCOc1cc(-c2ccc(C(F)(F)F)n(C)c2=O)c(F)cc1Cl', 5),
  ('C=C(C)COc1cc(-c2ccc(C(F)(F)F)n(C)c2=O)c(F)cc1Cl', 5),
  ('Cn1c(C(F)(F)F)ccc(-c2cc(C=NO)c(Cl)cc2F)c1=O', 5),
  ('CC(C)Oc1cc(-c2ccc(C(F)(F)F)n(C)c2=O)c(Cl)cc1Cl', 5);

* * *

Parameter Phytotoxicity Ze: see the listing below.
# System: corn (Ze)
# assay summary: Test Example 7: crop plant selectivity by upland field soil treatment (corn), phytotoxicity
# Type: in vivo
# Set-up: scale not given here
# conditions: dose 6.3 g ai/10a, 21st day after application
value kind: Phytotoxicity Ze

INSERT INTO measurements (compound_structure, tested_target, numeric_readout) VALUES
  ('Cn1c(C(F)(F)F)ccc(-c2cc(OCCF)c(Cl)cc2F)c1=O', 'corn (Ze)', 2),
  ('CCCc1cc2c(-c3ccc(C(F)(F)F)n(C)c3=O)c(F)cc(Cl)c2o1', 'corn (Ze)', 1),
  ('CC(C)Sc1cc(-c2ccc(C(F)(F)F)n(C)c2=O)c(F)cc1Cl', 'corn (Ze)', 1),
  ('Cn1c(C(F)(F)F)ccc(-c2cc(OCCCl)c(Cl)cc2F)c1=O', 'corn (Ze)', 0),
  ('COc1cc(-c2ccc(C(F)(F)F)n(N)c2=O)c(F)cc1Cl', 'corn (Ze)', 1),
  ('Cc1cc(-c2ccc(C(F)(F)F)n(C)c2=O)c(F)cc1Cl', 'corn (Ze)', 2),
  ('C#CCOc1cc(Cl)cc(F)c1-c1ccc(C(F)(F)F)n(C)c1=O', 'corn (Ze)', 1),
  ('CCCC(=O)c1cc(-c2ccc(C(F)(F)F)n(C)c2=O)c(F)cc1Cl', 'corn (Ze)', 0),
  ('Cn1c(C(F)(F)F)ccc(-c2cc(OCC(F)(F)F)c(Cl)cc2F)c1=O', 'corn (Ze)', 0);
